Tested on: NEK2
Conditions: concentration: 1 μM,replicates: in singlicate; n = 1;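 also: KINOMEscan kinase panel screen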
propertyName: %Inh

Here is how some molecules turned out for %Inh.
[
  {
    "molecule": "CC(C)c1nc(-c2cccc(NS(=O)(=O)c3ccccc3)c2)c(-c2ccnc(Nc3ccc4c(c3)CN(C)CC4)n2)s1 [GSK1649598]",
    "experimentalValue": "34%"
  },
  {
    "molecule": "CN1CCN(CCNc2nc3cc(Oc4ccc(NC(=O)Nc5cc(C(F)(F)F)ccc5F)cc4)ccc3[nH]2)CC1.Cl.Cl [GW768504]",
    "experimentalValue": "0%"
  },
  {
    "molecule": "Cc1nnc(-c2ccc3occ(-c4ccc(S(C)=O)cc4)c3n2)o1 (stereo not drawn)",
    "experimentalValue": "0%"
  }
]

# input Form field: reported %Inh of COc1ccc(Nc2nccc(N3CCC(NC(=O)c4cccc(C#N)c4)C3)n2)cc1 (stereo not drawn) [GSK1379730]
# output 0%

# input Form field: reported %Inh of OCCn1cc(-c2cnc3nnn(Cc4ccc5ncccc5c4)c3n2)cn1
# output 6%

# input Form field: reported %Inh of Cn1cc(-c2cccc3c(N)c(C(N)=O)nnc23)cn1
# output 15%

* * *

Tested on: CAMK2A
Details: concentration: 1 μM,replicates: in singlicate; n = 1
Recorded %Inh, one value per entry.
The reply should consist of the numeric value with the unit placed after it.

# input Form field: reported %Inh of c1ccc(Oc2ccc(Nc3ccnc4ccc(-c5ccccn5)cc34)cc2)cc1
# output 0%

# input Form field: reported %Inh of CS(=O)(=O)Nc1ccc(-c2ccnc3[nH]ccc23)cc1
# output 6%

# input Form field: reported %Inh of COc1cc2nccc(Nc3ccc(Oc4ccccc4)cc3)c2cc1OC.Cl
# output 0%

# input Form field: reported %Inh of COC(=O)Nc1nc2cc(Oc3ccc(NC(=O)Nc4cc(C(F)(F)F)ccc4Cl)cc3)ccc2[nH]1.Cl
# output 0%

# input Form field: reported %Inh of CS(=O)(=O)c1cccc(CNc2nc(Nc3ccc4c(c3)[C@@H]3C[C@@H]4CNC3=O)ncc2C(F)(F)F)c1
# output 0%

# input Form field: reported %Inh of O=C(Nc1ccc(Oc2ccc3nc(NC(=O)C4CC4)cn3n2)c(F)c1)c1cccn(-c2ccccc2)c1=O
# output 1%

# input Form field: reported %Inh of COc1ccc(Nc2nccc(N3CCC(NC(=O)c4cccc(C#N)c4)C3)n2)cc1 (stereo not shown)
# output 0%

# input Form field: reported %Inh of Cc1ccc(CC(=O)N2CCc3cc(-c4cn(C)c5ncnc(N)c45)ccc32)cc1
# output 0%

# input Form field: reported %Inh of CCn1c(-c2nonc2N)nc2cncc(Br)c21
# output 27%

# input Form field: reported %Inh of OCCn1cc(-c2cnc3nnn(Cc4ccc5ncccc5c4)c3n2)cn1
# output 0%

* * *

Recorded %Inh, one value per entry.
Tested on: BUB1
Conditions: concentration: 1 μM,replicates: in singlicate; n = 1
Give your result in % as a bare value.

[
  {
    "compound": "C[C@@H](Oc1cc(-n2cnc3cc(-c4cnn(C)c4)ccc32)sc1C(N)=O)c1ccccc1Cl",
    "%Inh, %": 27
  },
  {
    "compound": "N#Cc1cccc(C(=O)NC2CCN(c3ccnc(Nc4ccc(F)cc4)n3)C2)c1 (stereo not drawn)",
    "%Inh, %": 31
  },
  {
    "compound": "CCNCC(Cc1ccccc1)NC(=O)c1cc(Br)c(-c2ccnc3[nH]ccc23)s1.Cl.Cl (stereo not drawn)",
    "%Inh, %": 31
  },
  {
    "compound": "COC(=O)c1cccc(NC(=O)NC2CCN(c3ccnc(NCc4ccc(F)cc4)n3)CC2)c1",
    "%Inh, %": 21
  },
  {
    "compound": "CS(=O)c1ccc(-c2coc3ccc(-c4n[nH]c(=O)o4)cc23)cc1 (stereo not drawn)",
    "%Inh, %": 14
  }
]

Now for another entry.
# input Form field: reported %Inh of CN(c1ccccc1CNc1nc(Nc2ccc3c(c2)CC(=O)N3)ncc1C(F)(F)F)S(C)(=O)=O
# output 0

* * *

Tested on: PRKX
Conditions: concentration: 1 μM,replicates: in singlicate; n = 1
propertyName: %Inh (%)
Give your result in % as a bare value.

Here is how some molecules turned out for %Inh.
[
  {
    "molecule": "Cc1cccc2c(-c3ccncc3)c(-c3ccc(F)cc3)nn12.Cl",
    "propertyName": "%Inh",
    "experimentalValue": 3
  },
  {
    "molecule": "Cn1cc(-c2cccc3c(N)c(C(N)=O)nnc23)cn1",
    "propertyName": "%Inh",
    "experimentalValue": 3
  }
]

# input Form field: reported %Inh of O=c1[nH]cc(-c2ccc(O)cc2)c2sc(-c3ccncc3)cc12
# output 10

# input Form field: reported %Inh of O=C(NCC1CC1)c1ccc(-c2cc(C(=O)NC3CC3)ccc2F)cc1
# output 0

# input Form field: reported %Inh of Cc1nnc(-c2ccc3occ(-c4ccc(S(C)=O)cc4)c3n2)o1 (stereo not shown)
# output 0

# input Form field: reported %Inh of COC(=O)c1cccc(NC(=O)NC2CCN(c3ccnc(NCc4ccc(F)cc4)n3)CC2)c1
# output 9

# input Form field: reported %Inh of Cc1ccn2nc(-c3ccc(F)cc3)c(-c3ccncc3)c2c1.Cl
# output 21

* * *

Tested on: MYLK2
Settings: concentration: 1 μM,replicates: in singlicate; n = 1
propertyName: %Inh

Here is how some molecules turned out for %Inh.
[
  {
    "molecule": "COc1cc2nccc(Nc3ccc(Oc4ccccc4)cc3)c2cc1OC.Cl",
    "measuredOn": "MYLK2",
    "%Inh": "0%"
  },
  {
    "molecule": "COc1ccc(Nc2nccc(N3CCC(NC(=O)c4cccc(C#N)c4)C3)n2)cc1 (stereo not shown)",
    "measuredOn": "MYLK2",
    "%Inh": "0%"
  }
]

# input Look up %Inh with MYLK2 for this molecule: COc1cccc(CNC(=O)NC2CCN(c3ccnc(Nc4cc(OC)c(OC)c(OC)c4)n3)C2)c1 (stereo not shown)
# output 11%

# input Look up %Inh with MYLK2 for this molecule: COC(=O)c1cccc(NC(=O)NC2CCN(c3ccnc(Nc4cc(OC)c(OC)c(OC)c4)n3)C2)c1 (stereo not shown)
# output 25%

# input Look up %Inh with MYLK2 for this molecule: CS(=O)(=O)c1cccc(CNc2nc(Nc3ccc4c(c3)[C@@H]3C[C@@H]4CNC3=O)ncc2C(F)(F)F)c1
# output 12%

# input Look up %Inh with MYLK2 for this molecule: c1ccc(Oc2ccc(Nc3ccnc4ccc(-c5ccccn5)cc34)cc2)cc1
# output 12%

# input Look up %Inh with MYLK2 for this molecule: CN(c1ccc2c(c1)nc(NCc1ccc(F)cc1)n2C)c1ccnc(Nc2ccc(CS(C)(=O)=O)cc2)n1.Cl
# output 0%

* * *

Recorded %Inh, one value per entry.
Tested on: RET
Conditions: concentration: 1 μM,replicates: in singlicate; n = 1
Give your result in % as a bare value.

Here is how some molecules turned out for %Inh.
[
  {
    "molecule": "CNC(=O)c1ccccc1Nc1nc(Nc2cccc(CS(C)(=O)=O)c2)ncc1C.O=CO [GSK1520489]",
    "measuredOn": "RET",
    "experimentalValue": 100
  },
  {
    "molecule": "COC(=O)c1cccc(NC(=O)NC2CCN(c3ccnc(Nc4cc(OC)c(OC)c(OC)c4)n3)C2)c1 (centres unmarked) [GSK1379767]",
    "measuredOn": "RET",
    "experimentalValue": 11
  },
  {
    "molecule": "Cn1ccc2ncnc(Oc3ccc(NC(=O)Nc4cccc(C(F)(F)F)c4)c(Cl)c3)c21",
    "measuredOn": "RET",
    "experimentalValue": 100
  },
  {
    "molecule": "COC(=O)Nc1nc2cc(Oc3ccc(NC(=O)Nc4cc(C(F)(F)F)ccc4Cl)cc3)ccc2[nH]1.Cl [GW697465]",
    "measuredOn": "RET",
    "experimentalValue": 100
  }
]

# input Look up %Inh with RET for this molecule: COc1cc2ncn(-c3cc(OCC4CCCCC4)c(C(N)=O)s3)c2cc1OC [GSK204559]
# output 17

* * *

Recorded %Inh, one value per entry.
Tested on: EPHA7
Settings: concentration: 1 μM,replicates: in singlicate; n = 1
Give your result in % as a bare value.

Here is how some compounds turned out for %Inh.
[
  {
    "compound": "c1ccc(Oc2ccc(Nc3ccnc4ccc(-c5ccccn5)cc34)cc2)cc1",
    "units": "%",
    "%Inh": 0
  },
  {
    "compound": "COc1ccc(Nc2nccc(N3CCC(NC(=O)c4cccc(C#N)c4)C3)n2)cc1 (stereo not drawn)",
    "units": "%",
    "%Inh": 3
  },
  {
    "compound": "Cn1cc(-c2cccc3c(N)c(C(N)=O)nnc23)cn1",
    "units": "%",
    "%Inh": 6
  },
  {
    "compound": "C[C@@H]1CNc2c(sc3ccc4nc(-c5ccncc5)ccc4c23)C(=O)N1",
    "units": "%",
    "%Inh": 0
  },
  {
    "compound": "O=C1NCCc2[nH]c(-c3ccncc3)cc21",
    "units": "%",
    "%Inh": 0
  }
]

# input Form field: reported %Inh of COC(=O)Nc1nc2cc(Oc3ccc(NC(=O)Nc4cc(C(F)(F)F)ccc4Cl)cc3)ccc2[nH]1.Cl
# output 84

# input Form field: reported %Inh of Cc1ccc2c(-c3ccnc(Nc4ccc(C(F)(F)F)cc4)n3)cnn2n1
# output 0

# input Form field: reported %Inh of CS(=O)c1ccc(-c2coc3ccc(-c4n[nH]c(=O)o4)cc23)cc1 (stereo not drawn)
# output 0

# input Form field: reported %Inh of C[C@@H](Oc1cc(-n2cnc3ccc(-c4ccncc4)cc32)sc1C(N)=O)c1ccccc1Cl
# output 14
